Biological target: T1, recombinant human CD73 protein (ecto-5'-nucleotidase), expressed by the applicant, C-terminal 6x His tag (human, UniProt P21589 27-547)
T1 sequence: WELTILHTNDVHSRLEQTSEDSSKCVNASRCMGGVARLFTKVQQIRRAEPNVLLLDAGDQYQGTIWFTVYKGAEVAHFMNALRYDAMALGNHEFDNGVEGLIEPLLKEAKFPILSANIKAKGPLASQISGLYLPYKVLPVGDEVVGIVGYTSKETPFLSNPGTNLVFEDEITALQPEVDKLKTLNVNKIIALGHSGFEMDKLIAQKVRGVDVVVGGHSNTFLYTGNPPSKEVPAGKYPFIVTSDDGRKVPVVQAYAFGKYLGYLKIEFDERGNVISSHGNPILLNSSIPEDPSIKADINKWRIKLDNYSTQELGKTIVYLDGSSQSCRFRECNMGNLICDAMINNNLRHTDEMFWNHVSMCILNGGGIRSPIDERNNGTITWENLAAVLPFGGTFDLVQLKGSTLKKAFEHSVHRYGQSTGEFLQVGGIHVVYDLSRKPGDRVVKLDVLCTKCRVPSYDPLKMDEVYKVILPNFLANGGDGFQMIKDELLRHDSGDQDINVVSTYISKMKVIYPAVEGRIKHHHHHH
Experiment: cell-based or functional assay
PROPERTY_MEASURED: EC50 (µg/mL), Biochemical level, inhibition of the enzyme activity of CD73
Field: numeric (µg/mL). Do not append units.

// recorded EC50 (µg/mL), Biochemical level, inhibition of the enzyme activity of CD73 for anti-CD73 monoclonal antibody 06-6 (antibody, V domains shown, Mouse hybridoma antibody of the IgG type, purified from ascitic fluid) VH: QVQLQQSGPELVKPGASVRISCKASGYTFADYFMHWVRLRPGQGLEWIGWIYPGYVNIKYNEKFKGKATLTADKSSSTAYMQLSSLTSEDSAVYFCARGEDYDSAMDYWGQGTSVTVSS VL: GVVMTQTPLSLPVSLGDQASISCRSSQSLVHSNGNTYLHWYLQKPGQSPKLLIYKVSNRFSGVPDRFSGSGSGTDFTLKISRVEAEDLGVYFCSQSTHVPPWTFGGGTKLEIK : 0.206

// recorded EC50 (µg/mL), Biochemical level, inhibition of the enzyme activity of CD73 for anti-CD73 monoclonal antibody E1-B6 (antibody, V domains shown, Mouse hybridoma antibody of the IgG type, purified from ascitic fluid) VH: VKLQESGAELARPGASVKLSCKASGYTFTDYYINWVKQRTGQGLEWIGETYPGNGNTYYHEKFKGKATLTADRSSSTAYMQLSSLTSEDSAVYFCARGTYYGSSEYFDYWGQGTTVTVSS VL: DIVMTQSPKFMSTSVGDRVSITCKASQNVGTAVAWYQQRPGQSPKLLIYSASNRNTGVPDRFTGSGSGTDFTLTISNMQSEDLADYFCQQYSSYIFTFGSGTKLEIN : 0.232

// recorded EC50 (µg/mL), Biochemical level, inhibition of the enzyme activity of CD73 for anti-CD73 monoclonal antibody 81-2-2 (antibody, V domains shown, Mouse hybridoma antibody of the IgG type, purified from ascitic fluid) VH: QVQLQQPGAELVKPGASVKLSCKASGYTFTSYWMHWVKQRPGQGLEWIGEINPSNGRTNYNEKFKSKATLTVDKSSSTAYMQLSSLTSEDSAVYYCARRGTSGNFFDYWGQGTTLTVSS VL: DIKMTQSPSSMYASLGERVTITCKASQDINTYLSWFQQKPGKSPKTLIYRANRLVDGVPSRFSGSGSGQDYSLTISSLEYEDMGIYYCLQFDEFPYTFGGGTKLEIK : 0.239

// recorded EC50 (µg/mL), Biochemical level, inhibition of the enzyme activity of CD73 for anti-CD73 monoclonal antibody F2-2 (antibody, V domains shown, Mouse hybridoma antibody of the IgG type, purified from ascitic fluid) VH: VQLQESGPGLVKPSQSLSLTCTVTGHSITSDYVWNWIRQFPGNKLEWMGYISYSGIIKYNPSLKSRISITRDTSKNQFFLQLNSVTTEDTATYYCAGDEYFWFAYWGQGTTVTVSS VL: DIQMTQSPSSMYASLGERVTITCKASQDIKSYLSWYQQKPWKSPKTLIYYATNLADGVPSRFSGSGSGQDYSLTISSLESDDTATYYCLQHGESPYTFGGGTKLEIK : 0.109
